Reference for the values: the RNAGym collection of RNA variant scans (doi:10.1002/anie.201605470)

B1: Osa-1-4 twister ribozyme (parent)
chain: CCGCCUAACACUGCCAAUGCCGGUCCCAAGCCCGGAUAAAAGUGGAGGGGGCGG

variants of: B1; test: self-cleavage, relative activity (ratio to wild type); higher = more cleavage; co-transcriptional
Heads up, the class ranges for self-cleavage are low interval (below 0.05), middle interval (0.05 to below 0.2), high interval (0.2 or more)

>>> class_assignment("CCGCCUAACACUGCCAAUGGCGGUCCCAAGCCCGGAUAAAAAUGGAGGGGGCGG [C20G G42A]")
"middle interval"
>>> class_assignment("CCGCCUAACACAGCCAAUGCCGGACCCAAGCCCGGAUAAAAGUGGAGGGGGCGG [U12A U24A]")
"middle interval"
>>> class_assignment("CCGCCUAACACUUCCAAUCCCGGUCCCAAGCCCGGAUAAAAGUGGAGGGGGCGG [G13U G19C]")
"low interval"
>>> class_assignment("CCGCCUAACACUGCCAAUGCCGGUCCAAAGCCCGGAUAAAAGUGGAGGGGGAGG [C27A C52A]")
"high interval"
>>> class_assignment("CCGCCUAACACUGCCAAUGCCGGUGCCAAGCCCGGAUAAAAGUGGAGCGGGCGG [C25G G48C]")
"low interval"

Request: Entry CCGCCUAACACUGCCCAUGCCGGUCCCAAGCCCGGAUAAAACUGGAGGGGGCGG [A16C G42C] belongs to which category?
Response: middle interval

Request: Please let me know in which category the item CCGCCUAACACUGCCAAUGUCGGUUCCAAGCCCGGAUAAAAGUGGAGGGGGCGG [C20U C25U] belongs.
Response: high interval

Request: Into which category would you place CCGCCUAACAUUGCCAAUGCCGGUCCCAAGCCCGGAUAAAAGAGGAGGGGGCGG [C11U U43A] ?
Response: high interval

Request: Categorize the following entry: CCGCCUAACACUGCCAAUGCCAGUCCCAAGCCCGGUUAAAAGUGGAGGGGGCGG [A36U G22A]
Response: high interval
